pIC50: −log10 of the molar value.
BTK (Homo sapiens (Human), UniProt Q06187) data, read-out pIC50
Sequence (Q06187 whole entry): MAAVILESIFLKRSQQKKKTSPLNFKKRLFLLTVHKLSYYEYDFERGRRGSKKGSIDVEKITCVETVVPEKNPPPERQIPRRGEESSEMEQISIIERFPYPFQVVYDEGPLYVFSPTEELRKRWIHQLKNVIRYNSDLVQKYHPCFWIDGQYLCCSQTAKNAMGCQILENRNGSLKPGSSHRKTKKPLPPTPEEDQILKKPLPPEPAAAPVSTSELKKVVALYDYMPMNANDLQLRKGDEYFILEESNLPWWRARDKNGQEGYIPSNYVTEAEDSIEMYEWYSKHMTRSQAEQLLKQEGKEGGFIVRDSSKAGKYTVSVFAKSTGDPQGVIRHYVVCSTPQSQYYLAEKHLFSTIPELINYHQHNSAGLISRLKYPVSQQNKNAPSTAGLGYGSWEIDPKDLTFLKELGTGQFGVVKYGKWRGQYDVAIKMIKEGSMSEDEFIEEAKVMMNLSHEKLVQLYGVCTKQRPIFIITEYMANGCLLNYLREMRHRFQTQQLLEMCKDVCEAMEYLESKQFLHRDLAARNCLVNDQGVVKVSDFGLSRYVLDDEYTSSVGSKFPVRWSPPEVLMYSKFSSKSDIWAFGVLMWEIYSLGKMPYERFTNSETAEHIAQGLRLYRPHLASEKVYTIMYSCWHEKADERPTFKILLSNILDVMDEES

Use these answered entries as a reference point.
In [3]: df
Out[3]:
                                   compound                                 tested_on  measurement_name  test_result
0  C=CC(=O)N1CCC(c2nc(C(N)=O)c(-c3ccc(Oc4ccccc4)cc3)o2)C1 (stereo not shown)  BTK (Homo sapiens (Human), UniProt Q06187)             pIC50       > 6.30
1  C=CC(=O)N1CCN(c2ccc(C(N)=O)c(-c3ccc(OC4CCCCC4)cc3)n2)CC1  BTK (Homo sapiens (Human), UniProt Q06187)             pIC50       > 6.30
2  NC(=O)c1ccc(N2CCNCC2)nc1-c1ccc(Oc2ccccc2)cc1  BTK (Homo sapiens (Human), UniProt Q06187)             pIC50       ≤ 6.00
3  CN(C)C/C=C/C(=O)N1CCC(n2cc(C(N)=O)c(-c3ccc(Oc4ccccc4)cc3)n2)C1 (stereo not shown)  BTK (Homo sapiens (Human), UniProt Q06187)             pIC50       > 6.30
4  C=CC(=O)N1CCN(c2ccc(C(N)=O)c(-c3ccc(Oc4cccc(F)c4)cc3)n2)CC1  BTK (Homo sapiens (Human), UniProt Q06187)             pIC50       > 6.30

Query :: Value wanted: pIC50 (BTK (Homo sapiens (Human), UniProt Q06187)) of entry C=CC(=O)N1CCC(c2nc(-c3ccc(Oc4ccccc4)cc3)c(C(N)=O)s2)C1 (stereo not shown)
Result :: > 6.30

Query :: pIC50 of C=CC(=O)N1CCN(c2ccc(C(N)=O)c(-c3ccc(F)c(OC)c3)n2)CC1 on BTK (Homo sapiens (Human), UniProt Q06187)?
Result :: ≤ 6.00
